Recorded values, source patent US12516060B2.

# measurement_description: Dynamic Vapor Sorption (DVS)
# Assay type: physicochemical
# applied_conditions: 5-95% RH
assay_metric: DVS mass change 5-95% RH (wt. %)
Dear colleague, please return just the value in wt. %, with no unit written.

For CC(C)(O)CNc1nnc(-c2ccc(Cl)cc2O)c2ccncc12 [Form II freebase] the compound record lists DVS mass change 5-95% RH (wt. %) as 1.03

For CC(C)(O)CNc1nnc(-c2ccc(Cl)cc2O)c2ccncc12 [Form III freebase] the compound record lists DVS mass change 5-95% RH (wt. %) as 0.24

For CC(C)(O)CNc1nnc(-c2ccc(Cl)cc2O)c2ccncc12 [Form IV freebase] the compound record lists DVS mass change 5-95% RH (wt. %) as 1.59

For CC(C)(O)CNc1nnc(-c2ccc(Cl)cc2O)c2ccncc12 [Form I freebase] the compound record lists DVS mass change 5-95% RH (wt. %) as 0.5

For CC(C)(O)CNc1nnc(-c2ccc(Cl)cc2O)c2ccncc12 [Form V freebase] the compound record lists DVS mass change 5-95% RH (wt. %) as 0.20

###

# measurement_description: Solid form stability studies, 75% RH at 40° C. for one week (XRPD and HPLC)
# Format: physicochemical
# applied_conditions: HPLC, after 75% ± 5% RH at 40° C. ± 2° C. for 1 week
assay_metric: Purity % a/a (tested material)

For CC(C)(O)CNc1nnc(-c2ccc(Cl)cc2O)c2ccncc12 [Form V freebase] the molecule record lists Purity % a/a (tested material) as 99.60 % a/a

For CC(C)(O)CNc1nnc(-c2ccc(Cl)cc2O)c2ccncc12 [Form II freebase] the molecule record lists Purity % a/a (tested material) as 98.12 % a/a

For CC(C)(O)CNc1nnc(-c2ccc(Cl)cc2O)c2ccncc12 [Form IV freebase] the molecule record lists Purity % a/a (tested material) as 98.53 % a/a

For CC(C)(O)CNc1nnc(-c2ccc(Cl)cc2O)c2ccncc12 [Form III freebase] the molecule record lists Purity % a/a (tested material) as 99.60 % a/a

For CC(C)(O)CNc1nnc(-c2ccc(Cl)cc2O)c2ccncc12 [Form I freebase] the molecule record lists Purity % a/a (tested material) as 97.94 % a/a
